Listed here: items and their measured apparent KD of MS2 coat protein.
Test system: MS2 coat protein
Assay: apparent KD of MS2 coat protein; designed switch direction (-1 OFF switch, 1 ON switch): 1; higher = weaker reporter binding
Conditions: input ligand: none

item sequence | apparent KD of MS2 coat protein / nM
AAAACAUGACGAGGAUAUGGUACAUGAGGAUCACCCAUGUAUGUACCACGACGGAAACGUCGAAUCCAGAAGGCGUCAUGAAAA [Mat - Same State NG 2 - JL mod - D25] (Eterna round: R96, puzzle: Same State NG 2) | 194
CGUCGUUUGAUAGGAUAUCGCUUUACAUGAGGAUCGCCCAUGUUUACCACGCUGGUUUUUCUUUCCGAGAAGGAUUCUGAUGUU [salish99_SSNG02_r04_027] (Eterna round: R96, puzzle: Same State NG 2) | 4.85
